target: Glutamate NMDA receptor; assay: In vitro binding affinity against N-methyl-D-aspartate glutamate receptor using [3H]CGS-19,755 ligand; format: protein-complex assay
Recorded Metric: IC50 (nM)
The answer is to be given in nM; state only the numeric part.

Find the recorded IC50 belonging to O=C(O)[C@@H]1C[C@H](CCc2nn[nH]n2)CCN1 and report it.
2280

Now give it for O=C(O)[C@H]1C[C@H](Cc2nn[nH]n2)CCN1 too.
777

---

molecular target: Glutamate NMDA receptor; test: Compound was evaluated in vitro in a cortical-wedge preparation for the antagonism of N-methyl-D-aspartate-induced responses; format: functional
Flag rule - IC50 less than 4 µM flags Condition met; the remaining entries get Condition not met.

[
  {
    "Smiles Repr": "O=C(O)[C@@H]1C[C@H](CP(=O)(O)O)CCN1",
    "Discrete Label": "Condition met"
  }
]

Regarding O=C(O)[C@H]1C[C@H](Cc2nn[nH]n2)CCN1 , kindly confirm whether its IC50 is beneath 4 µM.
Condition not met

Now give it for O=C(O)[C@@H]1C[C@H](CCCc2nn[nH]n2)CCN1 too.
Condition not met

Now give it for O=C(O)[C@H]1C[C@@H](Cc2nnn[nH]2)CCN1 too.
Condition not met

Now give it for O=C(O)[C@@H]1C[C@H](CCc2nn[nH]n2)CCN1 too.
Condition not met
